Target: human ether-à-go-go-related gene (hERG) potassium channel (human, UniProt Q12809);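 further: peak tail current of the secondary pulse compared with the same well before compound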
Sequence (Q12809 whole entry, looked up): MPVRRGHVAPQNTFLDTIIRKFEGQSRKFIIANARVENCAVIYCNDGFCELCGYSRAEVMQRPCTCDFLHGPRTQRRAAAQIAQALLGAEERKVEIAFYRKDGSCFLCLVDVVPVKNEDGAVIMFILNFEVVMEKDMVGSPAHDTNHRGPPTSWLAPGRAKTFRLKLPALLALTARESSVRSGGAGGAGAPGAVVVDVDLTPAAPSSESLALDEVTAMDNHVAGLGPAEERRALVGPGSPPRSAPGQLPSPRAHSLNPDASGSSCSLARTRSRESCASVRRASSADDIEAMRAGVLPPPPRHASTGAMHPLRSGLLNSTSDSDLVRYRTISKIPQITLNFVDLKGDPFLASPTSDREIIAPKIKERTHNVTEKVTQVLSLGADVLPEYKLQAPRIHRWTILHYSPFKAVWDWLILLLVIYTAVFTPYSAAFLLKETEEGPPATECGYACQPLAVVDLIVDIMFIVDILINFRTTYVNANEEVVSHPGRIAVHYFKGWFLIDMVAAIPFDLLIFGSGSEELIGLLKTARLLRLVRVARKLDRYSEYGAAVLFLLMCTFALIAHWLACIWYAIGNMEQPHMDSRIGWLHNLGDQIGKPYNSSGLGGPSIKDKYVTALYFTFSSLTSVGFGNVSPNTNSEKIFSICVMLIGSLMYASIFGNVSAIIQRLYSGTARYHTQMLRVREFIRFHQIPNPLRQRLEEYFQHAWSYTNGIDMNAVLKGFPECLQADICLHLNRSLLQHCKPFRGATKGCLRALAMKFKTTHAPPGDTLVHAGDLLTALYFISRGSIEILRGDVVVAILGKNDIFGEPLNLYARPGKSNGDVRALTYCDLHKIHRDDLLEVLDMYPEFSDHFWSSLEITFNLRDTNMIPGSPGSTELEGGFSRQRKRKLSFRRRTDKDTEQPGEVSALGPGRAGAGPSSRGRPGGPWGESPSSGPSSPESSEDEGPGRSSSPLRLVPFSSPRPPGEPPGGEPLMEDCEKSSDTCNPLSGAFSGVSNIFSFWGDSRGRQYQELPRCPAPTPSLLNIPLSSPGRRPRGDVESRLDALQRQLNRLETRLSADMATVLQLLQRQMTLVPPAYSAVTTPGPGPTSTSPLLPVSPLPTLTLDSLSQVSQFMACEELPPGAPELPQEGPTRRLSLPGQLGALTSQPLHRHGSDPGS
Test: primary screen, population patch clamp on CHO cells stably expressing hERG; higher = less effect of the substance
Procedure: Briefly, Chinese hamster ovary (CHO) cells stably expressing the hERG channel were dislodged from tissue culture flasks and dispensed into PPC plates. […] During the recording, background leak currents were estimated by a 100 ms step to -80 mV from an initial holding potential of -70 mV and subtracted from the subsequent current measurement. The campaign was conducted in two phases using slight differences in recording protocol. […]
The whole screen tested about 310,000 compounds, of which about 14,000 (4.5%) showed an effect of 50% or more. The effect is printed as a negative number. What follows is part of a selection rich in strong results, with near analogues and random picks from the rest.
endpoint_name: hERG current change (%, negative = inhibition) at 10uM (%)

molecule	scale_unit	result
COc1ccc(N2CCN(C3CC(=O)N(C)C3=O)CC2)cc1 (stereo not shown)	%	17.4
Cc1ccc(NC(=O)CSc2nc3ccccc3c(=O)n2CCCC(=O)NCCCN2CCOCC2)cc1C	%	-69.1
Cc1cc(C(C)(C)C)c(OC(=O)[C@@H]2OC(c3ccccc3)=C[C@H]2c2ccccc2)c(C(C)(C)C)c1	%	7.58
COc1cccc(NC(=O)CSc2nc3ccccc3c(=O)n2C)c1	%	-7.76
Cc1cc(C)nc(/N=C(\N)N(Cc2ccccc2)Cc2ccccc2)n1	%	-70.6
COc1ccc(F)c(-c2nc(CN3CCN(C(=O)c4ccco4)CC3)c(C)o2)c1	%	-35.9
Cc1[nH]n(-c2cccc([N+](=O)[O-])c2)c(=O)c1-c1ccccc1	%	15.8
C/C(=N\NC(N)=S)C1C2C3CC4C5CC(C42)C1C53 (stereo not shown)	%	-10
O=C(c1ccco1)N1CCN(Cc2csc(-c3ccccc3Cl)n2)CC1	%	-64.9
COCCNC(=S)N/N=C1\CC(C)CC(C)(C)C1 (stereo not shown)	%	6.32
CCOc1ccc(CN(C)CC(=O)Nc2cc(C)c(C)cc2[N+](=O)[O-])cc1.CN(C)C=O	%	9.36
O=C(Nc1c(C(=O)c2ccccc2)oc2ccccc12)c1cc(-c2ccccc2O)n[nH]1	%	9.34
COC(=O)c1ccc([C@H]2C=C(C(=O)O)O[C@@H](OCc3ccc(CO)cc3)C2)cc1	%	13.6
Cc1ccc(SCC(=O)OCC(=O)N(CC(C)C)C2CCS(=O)(=O)C2)cc1C (stereo not shown)	%	-4.29
CN(CC(=O)Nc1ccccc1Br)C(=O)c1cc2c(s1)CCCCC2	%	-1.74
Cc1ccc(-c2nc(CSCC(=O)N3CCN(C(=O)c4ccco4)CC3)c(C)o2)cc1	%	-32.7
COc1ccc(CCC(C)N2CCC(Oc3ccc(C(=O)N4CCCC4)cc3)CC2)cc1 (stereo not shown)	%	-65.4
CC(C)C1N(C(=O)CN2CCCC2)CCN1S(=O)(=O)c1ccccc1 (stereo not shown)	%	11
Cc1cccc(-c2nsc(SCC(=O)c3ccc(Cl)cc3)n2)c1	%	23.3
O=C(Cn1ncc2c([nH]c3ccccc32)c1=O)N1CCN(c2ccccc2F)CC1	%	1.65
O=C(CCCOc1ccc(Cl)cc1)Nc1nncs1	%	-28.9
CCc1c(C)sc2nc3c(C(=O)N4CCOCC4)cc(C(=O)c4ccccc4O)cn3c(=O)c12	%	-10.7
CCCCc1c(O)nc(SCC(=O)NCCc2ccc(OC)c(OC)c2)[nH]c1=O	%	-0.0252
Cc1c(NC=C(C#N)C#N)c(=O)n(-c2ccccc2)n1C	%	35.5
CC(CCc1ccc(O)cc1)N1CCC(Oc2ccc(C(=O)N3CCCC3)cc2)CC1 (stereo not shown)	%	-55.7
O=C(CCCn1c(SCc2cccc([N+](=O)[O-])c2)nc2ccccc2c1=O)NCC1CCCO1 (stereo not shown)	%	-59.7
CCOC(=O)C(C)Sc1nc2ccccc2c(=O)n1CC (stereo not shown)	%	-22.4
NC(=O)c1nsc(C(=O)N(c2ccc(F)cc2)C(C(=O)NC2CCCC2)c2ccncc2)c1N (stereo not shown)	%	-0.193
COc1ccc(N2C(=O)CC(N3CCCC4CCCCC43)C2=O)cc1 (stereo not shown)	%	1.28
CN(C)c1cccc2cccc(N(C)C)c12	%	-3.13
CCCCn1c(SCC(=O)Nc2cccc(OC)c2)nc2ccc(N3CCOCC3)cc2c1=O	%	-9.77
COC(CNC(=O)CC1C(=O)N(Cc2ccccc2)C(C)c2nc3ccccc3n21)OC (stereo not shown)	%	9.2
CC(C)N1C(=O)CCC1C(=O)N1CCC(Cc2ccccc2)CC1 (stereo not shown)	%	-25.3
Cc1cc(C)nc(N(C#N)Cc2ccccc2)n1	%	-4.34
